# assay.name: Pharmacokinetics in plasma after a single intravenous administration to beagle dogs (LC-MS/MS, non-compartmental analysis)
# Format: in vivo, beagle dog
# stated.conditions: both sexes, beagle, dog, plasma, iv, 0.1 mg/kg, median, 0.1 mg/kg single i.v., beagle dog plasma, n = 5
endpoint: C0 (ng/mL)
Form entry: value (ng/mL) — number only.

Problem: Recorded C0 of `O=C1CN=C(c2ccccc2)c2cc([N+](=O)[O-])ccc2N1CN1CCCC1` , please.
Result: 30.6

----------
# assay.name: Pharmacokinetics in plasma after a single intravenous administration to beagle dogs (LC-MS/MS, non-compartmental analysis)
# Type: in vivo, beagle dog
# stated.conditions: both sexes, beagle, dog, plasma, iv, 0.1 mg/kg, mean, 0.1 mg/kg single i.v., beagle dog, n = 5; read-out: Ke (converted)
# Protocol: Aliquots (0.05 mL) of each plasma sample were added to glass tubes followed by 0.05 mL of IS (ropivacaine 100 ng/mL). The tubes were vortexed for 5 s and 0.1 mL of acetonitrile were added. […] Non-compartmental analysis was used to determine the pharmacokinetic parameters of neurounina-1 after the intravenous administration. […] The area under the plasma concentration vs. time curves from zero to the last detectable concentration (AUC0-tlast) were calculated by applying the linear-log trapezoid rule. […]
endpoint: k el (s⁻¹)
The reply should be a number in s⁻¹, with the unit left off.

Problem: Give its k el value. Item: `O=C1CN=C(c2ccccc2)c2cc([N+](=O)[O-])ccc2N1CN1CCCC1`
Result: 9.72e-05

----------
# assay.name: Pharmacokinetics in plasma after a single intravenous administration to beagle dogs (LC-MS/MS, non-compartmental analysis)
# Format: in vivo, beagle dog
# stated.conditions: both sexes, beagle, dog, plasma, iv, 0.3 mg/kg, mean, 0.3 mg/kg single i.v., beagle dog, n = 5; read-out: t1/2 (converted)
endpoint: half-life

Problem: Fill blank: measured half-life of the compound O=C1CN=C(c2ccccc2)c2cc([N+](=O)[O-])ccc2N1CN1CCCC1 [Neurounina-1] is ____.
Result: 2.54 h

----------
# assay.name: Pharmacokinetics in plasma after a single intravenous administration to beagle dogs (LC-MS/MS, non-compartmental analysis)
# Type: in vivo, beagle dog
# stated.conditions: both sexes, beagle, dog, plasma, iv, 0.3 mg/kg, median, 0.3 mg/kg single i.v., beagle dog, n = 5
endpoint: Vd
Reply with the number, then its unit.

Problem: Please report the recorded Vd for O=C1CN=C(c2ccccc2)c2cc([N+](=O)[O-])ccc2N1CN1CCCC1 [Neurounina-1] .
Result: 103 L

----------
# assay.name: Pharmacokinetics in plasma after a single intravenous administration to beagle dogs (LC-MS/MS, non-compartmental analysis)
# Assay type: in vivo, beagle dog
# stated.conditions: both sexes, beagle, dog, plasma, iv, 1 mg/kg, mean, 1 mg/kg single i.v., beagle dog, n = 5
# Experimental: Aliquots (0.05 mL) of each plasma sample were added to glass tubes followed by 0.05 mL of IS (ropivacaine 100 ng/mL). The tubes were vortexed for 5 s and 0.1 mL of acetonitrile were added. […] Non-compartmental analysis was used to determine the pharmacokinetic parameters of neurounina-1 after the intravenous administration. […] The area under the plasma concentration vs. time curves from zero to the last detectable concentration (AUC0-tlast) were calculated by applying the linear-log trapezoid rule. […]
endpoint: clearance (mL/min)
Give the quantity in mL/min, number only.

Problem: Dear colleague, I am looking for the recorded clearance of the following molecule: O=C1CN=C(c2ccccc2)c2cc([N+](=O)[O-])ccc2N1CN1CCCC1 [Neurounina-1]
Result: 1150

----------
# assay.name: Pharmacokinetics in plasma after a single intravenous administration to beagle dogs (LC-MS/MS, non-compartmental analysis)
# Format: in vivo, beagle dog
# stated.conditions: both sexes, beagle, dog, plasma, iv, 0.1 mg/kg, mean, 0.1 mg/kg single i.v., beagle dog, n = 5
endpoint: Vd (L)
State just the number; it will be interpreted in L.

Problem: Find the recorded Vd belonging to O=C1CN=C(c2ccccc2)c2cc([N+](=O)[O-])ccc2N1CN1CCCC1 [Neurounina-1] and report it.
Result: 130

----------
# assay.name: Pharmacokinetics in plasma after a single intravenous administration to beagle dogs (LC-MS/MS, non-compartmental analysis)
# Format: in vivo, beagle dog
# stated.conditions: both sexes, beagle, dog, plasma, iv, 0.3 mg/kg, median, 0.3 mg/kg single i.v., beagle dog, n = 5
endpoint: clearance
Remember to follow the number with its unit.

Problem: So what does the record say about clearance for `O=C1CN=C(c2ccccc2)c2cc([N+](=O)[O-])ccc2N1CN1CCCC1` ?
Result: 591 mL/min

----------
# assay.name: Pharmacokinetics in plasma after a single intravenous administration to beagle dogs (LC-MS/MS, non-compartmental analysis)
# Type: in vivo, beagle dog
# stated.conditions: both sexes, beagle, dog, plasma, iv, 1 mg/kg, mean, 1 mg/kg single i.v., beagle dog, n = 5; read-out: t1/2 (converted)
endpoint: half-life (h)
Report only the number, with the unit h understood.

Problem: GET /values?readout=half-life&item= `O=C1CN=C(c2ccccc2)c2cc([N+](=O)[O-])ccc2N1CN1CCCC1`
Result: 2.04

----------
# assay.name: Pharmacokinetics in plasma after a single intravenous administration to beagle dogs (LC-MS/MS, non-compartmental analysis)
# Format: in vivo, beagle dog
# stated.conditions: both sexes, beagle, dog, plasma, iv, 0.1 mg/kg, mean, 0.1 mg/kg single i.v., beagle dog plasma, back-extrapolated, n = 5
endpoint: C0 (ng/mL)
// note: answer is a bare numeric in ng/mL

Problem: Recorded C0 of `O=C1CN=C(c2ccccc2)c2cc([N+](=O)[O-])ccc2N1CN1CCCC1` , please.
Result: 32.5

----------
# assay.name: Pharmacokinetics in plasma after a single intravenous administration to beagle dogs (LC-MS/MS, non-compartmental analysis)
# Type: in vivo, beagle dog
# stated.conditions: both sexes, beagle, dog, plasma, iv, 0.3 mg/kg, mean, 0.3 mg/kg single i.v., beagle dog, n = 5; read-out: Ke (converted)
endpoint: k el (s⁻¹)
Form entry: value (s⁻¹) — number only.

Problem: Could you share which k el value was measured for O=C1CN=C(c2ccccc2)c2cc([N+](=O)[O-])ccc2N1CN1CCCC1 [Neurounina-1] ?
Result: 8.33e-05

----------
# assay.name: Pharmacokinetics in plasma after a single intravenous administration to beagle dogs (LC-MS/MS, non-compartmental analysis)
# Assay type: in vivo, beagle dog
# stated.conditions: both sexes, beagle, dog, plasma, iv, 0.1 mg/kg, median, 0.1 mg/kg single i.v., beagle dog, n = 5
endpoint: Vd (L)
Report the figure in L without appending any unit label.

Problem: Given the entry O=C1CN=C(c2ccccc2)c2cc([N+](=O)[O-])ccc2N1CN1CCCC1 [Neurounina-1] , report its measured Vd.
Result: 127

----------
# assay.name: Pharmacokinetics in plasma after a single intravenous administration to beagle dogs (LC-MS/MS, non-compartmental analysis)
# Assay type: in vivo, beagle dog
# stated.conditions: both sexes, beagle, dog, plasma, iv, 0.3 mg/kg, mean, 0.3 mg/kg single i.v., beagle dog plasma, back-extrapolated, n = 5
endpoint: C0 (ng/mL)
# number only, unit ng/mL dropped from output

Problem: Look up C0: `O=C1CN=C(c2ccccc2)c2cc([N+](=O)[O-])ccc2N1CN1CCCC1`
Result: 111

----------
# assay.name: Pharmacokinetics in plasma after a single intravenous administration to beagle dogs (LC-MS/MS, non-compartmental analysis)
# Type: in vivo, beagle dog
# stated.conditions: both sexes, beagle, dog, plasma, iv, 0.3 mg/kg, median, 0.3 mg/kg single i.v., beagle dog, n = 5; read-out: Ke (converted)
endpoint: k el (s⁻¹)
Write the answer as a number in s⁻¹, unit excluded.

Problem: Given the entry `O=C1CN=C(c2ccccc2)c2cc([N+](=O)[O-])ccc2N1CN1CCCC1` , report its measured k el.
Result: 8.61e-05

----------
# assay.name: Pharmacokinetics in plasma after a single intravenous administration to beagle dogs (LC-MS/MS, non-compartmental analysis)
# Type: in vivo, beagle dog
# stated.conditions: both sexes, beagle, dog, plasma, iv, 1 mg/kg, median, 1 mg/kg single i.v., beagle dog, n = 5
endpoint: clearance (mL/min)
Quick note: give the figure in mL/min, leave out the unit.

Problem: Param item = `O=C1CN=C(c2ccccc2)c2cc([N+](=O)[O-])ccc2N1CN1CCCC1` ; retrieve measured clearance.
Result: 1250

----------
# assay.name: Pharmacokinetics in plasma after a single intravenous administration to beagle dogs (LC-MS/MS, non-compartmental analysis)
# Format: in vivo, beagle dog
# stated.conditions: both sexes, beagle, dog, plasma, iv, beagle dog, overall statement; read-out: half-life (converted)
endpoint: half-life

Problem: Report half-life for `O=C1CN=C(c2ccccc2)c2cc([N+](=O)[O-])ccc2N1CN1CCCC1` please.
Result: ~2 h

----------
# assay.name: Pharmacokinetics in plasma after a single intravenous administration to beagle dogs (LC-MS/MS, non-compartmental analysis)
# Format: in vivo, beagle dog
# stated.conditions: both sexes, beagle, dog, plasma, iv, 1 mg/kg, median, 1 mg/kg single i.v., beagle dog, n = 5
# Protocol: Aliquots (0.05 mL) of each plasma sample were added to glass tubes followed by 0.05 mL of IS (ropivacaine 100 ng/mL). The tubes were vortexed for 5 s and 0.1 mL of acetonitrile were added. […] Non-compartmental analysis was used to determine the pharmacokinetic parameters of neurounina-1 after the intravenous administration. […] The area under the plasma concentration vs. time curves from zero to the last detectable concentration (AUC0-tlast) were calculated by applying the linear-log trapezoid rule. […]
endpoint: Vd (L)
Respond numerically; units are L and should not be typed.

Problem: Data request, read-out Vd, for `O=C1CN=C(c2ccccc2)c2cc([N+](=O)[O-])ccc2N1CN1CCCC1`
Result: 224

Data credit: paper PMC6497007
